# λc listing for each entry below
# EXPERIMENT: Absorption characteristics: transmission spectrum of near-infrared absorbing layer of NIR filter (UV-visible spectrophotometer)
# Format: physicochemical
# TEST_PARAMETERS: transparent resin polycarbonate SP3810, nd(B) 1.63, film thickness 1.0 μm
# Description: Further, the transmittance of the near-infrared absorbing layer can be measured by using an ultraviolet visible light spectrophotometer. For example, when the near-infrared absorbing layer is provided on a glass substrate, the transmittance is calculated by subtracting the transmittance of only the glass substrate. […]
Give the quantity in nm, number only.

Here are 2 molecules together with their reported answers.
CCCCCCCC(=O)Nc1cc2c(cc1C1=C([O-])C(=c3cc4c(cc3NC(=O)CCCCCCC)=[N+](C)C(C)C4(C)C)C1=O)C(C)(C)C(C)N2C (stereo not drawn) [Example A11-24, reference compound] : 618
CCCC(C)(C)C(=O)Nc1cc2c(cc1C1=C([O-])C(=c3cc4c(cc3NC(=O)C(C)(C)CCC)=[N+](C)C(C)C4(C)C)C1=O)C(C)(C)C(C)N2C (stereo not drawn) : 620

Input: Which value of λc has been reported for CCCCC(CC)C(=O)Nc1cc2c(cc1C1=C([O-])C(=c3cc4c(cc3NC(=O)C(CC)CCCC)=[N+](C(C)C)C(C)C4(C)C)C1=O)C(C)(C)C(C)N2C(C)C (stereo not drawn) in the records?
Output: 635

Input: For the molecule shown here, Cc1ccc(C)c(OCCCC(C)(C)C(=O)Nc2cc3c(cc2C2=C([O-])C(=c4cc5c(cc4NC(=O)C(C)(C)CCCOc4cc(C)ccc4C)=[N+](C)C(C)C5(C)C)C2=O)C(C)(C)C(C)N3C)c1 (stereo not drawn) , give the reported λc.
Output: 620

Input: Requested field: λc. Item: CC(CCC(C(=O)Nc1cc2c(cc1C1=C([O-])C(=c3cc4c(cc3NC(=O)C(CCC(C)CC(C)(C)C)C(C)CC(C)(C)C)=[N+](C)C(C)C4(C)C)C1=O)C(C)(C)C(C)N2C)C(C)CC(C)(C)C)CC(C)(C)C (stereo not drawn)
Output: 624

Input: Value lookup for λc; key = CC(=O)Nc1cc2c(cc1C1=C([O-])C(=c3cc4c(cc3NC(C)=O)=[N+](C)C(C)C4(C)C)C1=O)C(C)(C)C(C)N2C (stereo not drawn) [Example A11-20, reference compound]
Output: 614

Input: Look up λc: CCCC(CCC)C(=O)Nc1cc2c(cc1C1=C([O-])C(=c3cc4c(cc3NC(=O)C(CCC)CCC)=[N+](C)C(C)C4(C)C)C1=O)C(C)(C)C(C)N2C (stereo not drawn)
Output: 625

Input: Which λc value is on record for CCCCCCCCCCCC(=O)Nc1cc2c(cc1C1=C([O-])C(=c3cc4c(cc3NC(=O)CCCCCCCCCCC)=[N+](C)C(C)C4(C)C)C1=O)C(C)(C)C(C)N2C (stereo not drawn) [Example A11-25, reference compound] ?
Output: 618

Input: # get_value(readout='λc', item= CCCCC(CC)C(=O)Nc1cc2c(cc1C1=C([O-])C(=c3cc4c(cc3NC(=O)C(CC)CCCC)=[N+](C)C(C)C4(C)C)C1=O)C(C)(C)C(C)N2C (stereo not drawn) )
Output: 624

Each recorded value in this set is attributed to patent US10495796B2.
